Catalogue of molecules with associated TGI
Test system: HCC-2998 colon
Test: NCI tumour cell line growth inhibition, 48 h

Worked cases, answers included:
[
  {
    "molecule": "Nc1c(C(=O)O)nnc2cc(Cl)c(Cl)cc12",
    "TGI": "> 100 µM"
  },
  {
    "molecule": "O=c1[nH]c2ccccc2c2ccccc12",
    "TGI": "> 100 µM"
  },
  {
    "molecule": "CN1c2ccccc2N(C(=O)c2ccc([N+](=O)[O-])cc2)C(CC(=O)O)c2cccn21 (centres undefined)",
    "TGI": "> 100 µM"
  },
  {
    "molecule": "O=S(=O)(NCCCNc1nccc(-c2c(-c3ccc(O)cc3)nc3sccn23)n1)c1ccc(F)cc1",
    "TGI": "6.93 µM"
  },
  {
    "molecule": "Cc1ccccc1N=Nc1c(O)c(S(=O)(=O)O)cc2cc(S(=O)(=O)O)ccc12",
    "TGI": "> 100 µM"
  }
]

Prompt: Input CC(C)=CCC[C@]1(C)C=Cc2c(O)c3c(c(CC=C(C)C)c2O1)O[C@]12C(=C[C@@H]4CC1C(C)(C)O[C@@]2(C/C=C(/C)C(=O)O)C4=O)C3=O , output reported TGI.
Completion: 2.81 µM

Prompt: Input CC(C)c1[nH]nc(C(N)=O)c1N=NN(C)C , output reported TGI.
Completion: > 100 µM

Prompt: Input CC(C)=CCC[C@@H](C)/C=C/C=C(\C)C(=O)CC[C@@H]1CC[N@+]2(C)CCCC[C@H]12 , output reported TGI.
Completion: > 100 µM

Prompt: Input Cc1cc(NCCCCCCCCNc2cc(C)nc3cc(N)ccc23)c2ccc(N)cc2n1 , output reported TGI.
Completion: 38.8 µM
